Data provenance is patent US9751885B2.

Experiment: Evaluation of hippocampal distribution in mouse
Assay type: in vivo
Details: plasma, male ICR mice, 10 mg/kg oral, 0.5 hr after administration, read-out: plasma concentration (mean)
Where a name gives a salt, the structure may show the parent alone.
Catalogue of molecules with associated concentration at 0.5 h

| MOLECULE | concentration at 0.5 h [ng/mL] |
| --- | --- |
| O=C(NC1CCCC1)c1cccc([C@@H]2C[C@H]2NC2CCOCC2)c1 (relative stereo) [Example 168, hydrochloride] | 451 |
| Cn1cc(NC(=O)c2ccc(F)c([C@@H]3C[C@H]3NCC3CC3)c2)cn1 (relative stereo) [Example 237, dihydrochloride] | 523 |
| Cc1nnc(NC(=O)c2ccc(C)c([C@@H]3C[C@H]3NC3CCOCC3)c2)s1 (relative stereo) [Example 185, hydrochloride] | 1020 |
| Cc1nnc(NC(=O)c2cc([C@@H]3C[C@H]3NC3CCC(F)(F)CC3)ccc2F)s1 (relative stereo) [Example 223, dihydrochloride] | 1400 |
| O=C(NC1CCOCC1)c1cccc([C@@H]2C[C@H]2NC2CCC(F)(F)CC2)c1 (relative stereo) [Example 178, hydrochloride] | 1050 |
| Cn1cc(NC(=O)c2cccc([C@@H]3C[C@H]3NC3CCN(CC(F)(F)F)CC3)c2)cn1 (relative stereo) [Example 171, trihydrochloride] | 1310 |
| Cc1nnc(NC(=O)c2cc([C@@H]3C[C@H]3NCC3CC3)ccc2F)s1 (relative stereo) [Example 110, dihydrochloride] | 4490 |
| O=C(NC1CCN(CC(F)(F)F)CC1)c1cccc([C@@H]2C[C@H]2NCC2CC2)c1 (relative stereo) [Example 108, dihydrochloride] | 684 |
| O=C(NC1CCOCC1)c1cccc([C@@H]2C[C@H]2NC2CCC2)c1 (relative stereo) [Example 179, hydrochloride] | 421 |
| O=C(Nc1ccc(N2CCCC2=O)cc1)c1cccc([C@@H]2C[C@H]2NCC2CC2)c1 (relative stereo) [Example 82, hydrochloride] | 5610 |
| Cc1ncc(NC(=O)c2cccc([C@@H]3C[C@H]3NCC3CC3)c2)s1 (relative stereo) [Example 79, dihydrochloride] | 759 |
| Cc1nnc(NC(=O)c2ccc(F)c([C@@H]3C[C@H]3NCC3CC3)c2)s1 (relative stereo) [Example 109, dihydrochloride] | 1250 |
| O=C(NC1CCOCC1)c1cc([C@@H]2C[C@H]2NCC2CC2)ccc1F (relative stereo) [Example 111, hydrochloride] | 823 |
